Target desc: BaF3 cell lines stably transfected with kinase EGFR L858R/T790M/C797S (Homo sapiens, UniProt P00533, T790M/C797S/L858R, cells depend on it)
Sequence (P00533 whole entry T790M/C797S/L858R): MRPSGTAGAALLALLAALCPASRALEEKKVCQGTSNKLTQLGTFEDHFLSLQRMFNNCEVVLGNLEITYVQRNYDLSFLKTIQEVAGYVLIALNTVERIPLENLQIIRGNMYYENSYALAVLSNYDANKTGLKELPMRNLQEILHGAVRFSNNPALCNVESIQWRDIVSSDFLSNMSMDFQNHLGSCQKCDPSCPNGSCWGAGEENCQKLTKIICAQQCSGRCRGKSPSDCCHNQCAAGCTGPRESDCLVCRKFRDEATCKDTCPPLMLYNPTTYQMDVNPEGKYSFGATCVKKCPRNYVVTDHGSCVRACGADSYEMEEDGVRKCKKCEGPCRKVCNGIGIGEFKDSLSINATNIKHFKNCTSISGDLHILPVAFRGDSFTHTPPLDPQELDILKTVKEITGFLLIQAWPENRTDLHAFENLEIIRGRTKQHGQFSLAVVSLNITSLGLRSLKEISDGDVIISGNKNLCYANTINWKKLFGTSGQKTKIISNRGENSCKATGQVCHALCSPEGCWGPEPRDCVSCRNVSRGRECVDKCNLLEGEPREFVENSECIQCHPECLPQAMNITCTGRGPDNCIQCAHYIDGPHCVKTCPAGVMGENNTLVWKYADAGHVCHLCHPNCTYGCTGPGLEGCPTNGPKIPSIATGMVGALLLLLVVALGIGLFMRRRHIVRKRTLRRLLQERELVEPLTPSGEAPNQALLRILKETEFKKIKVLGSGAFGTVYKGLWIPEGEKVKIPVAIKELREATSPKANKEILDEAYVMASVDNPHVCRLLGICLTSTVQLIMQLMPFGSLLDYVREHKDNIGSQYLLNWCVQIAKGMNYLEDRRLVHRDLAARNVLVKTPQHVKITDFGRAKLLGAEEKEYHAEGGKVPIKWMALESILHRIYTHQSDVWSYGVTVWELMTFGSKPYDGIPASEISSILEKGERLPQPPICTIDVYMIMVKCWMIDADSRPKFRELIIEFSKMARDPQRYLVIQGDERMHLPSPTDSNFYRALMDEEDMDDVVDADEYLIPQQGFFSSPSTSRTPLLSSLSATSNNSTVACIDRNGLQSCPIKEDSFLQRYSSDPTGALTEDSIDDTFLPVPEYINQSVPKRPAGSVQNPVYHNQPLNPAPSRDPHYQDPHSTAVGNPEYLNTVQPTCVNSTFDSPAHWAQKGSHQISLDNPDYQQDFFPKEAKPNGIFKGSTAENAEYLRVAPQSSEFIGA
Protocol summary: Growth inhibition of BaF3 cell line stably transfected with kinase EGFR L858R/T790M/C797S (MTS)
Type: cell-based
Condition context: 48 h, read-out: growth inhibitory activity IC50, L858R/T790M/C797S
Quick reference: GI50 of the listed items.

C=C(C)c1cnc(Nc2ccc(N3CCC(N4CCN(C)CC4)CC3)c(CC)c2)nc1Nc1ccc2nccnc2c1N(C)S(C)(=O)=O [II-24]    50 to 500 nM

The compound C=Cc1cnc(Nc2cc(C)c(N3CCC(N4CCN(C)CC4)CC3)cc2OC)nc1Nc1ccc2nccnc2c1N(C)S(C)(=O)=O [II-15] showed GI50 equal to ≤ 50 nM

The compound C=Cc1cnc(Nc2cc(C(C)C)c(N3CCC(N4CCN(C)CC4)CC3)cc2OC)nc1Nc1ccc2nccnc2c1N(C)S(C)(=O)=O [II-17] showed GI50 equal to 50 to 500 nM

The compound C=Cc1cnc(Nc2cc(CC)c(N3CCC(N(C)C)C3)cc2OC)nc1Nc1ccc2nccnc2c1N(C)S(C)(=O)=O (stereo not shown) [II-3] showed GI50 equal to ≤ 50 nM

The compound C=Cc1cnc(Nc2cc(F)c(N3CCC(N4CCN(C)CC4)CC3)c(F)c2)nc1Nc1ccc2nccnc2c1NS(C)(=O)=O [II-46] showed GI50 equal to 50 to 500 nM

The compound C=Cc1cnc(Nc2ccc(N3CCC(N4CCN(C)CC4)CC3)c(CC)c2)nc1Nc1ccc2nccnc2c1S(C)(=O)=O [III-14] showed GI50 equal to 50 to 500 nM

The compound C=Cc1cnc(Nc2cc(CC)c(N3CCC(N4CCN(C)CC4)CC3)cc2OC(F)(F)F)nc1Nc1ccc2nccnc2c1S(=O)(=O)NC [IV-5] showed GI50 equal to 500 to 2500 nM
